Tested system: Betaine--homocysteine S-methyltransferase 1 (Homo sapiens)
Sequence (whole entry): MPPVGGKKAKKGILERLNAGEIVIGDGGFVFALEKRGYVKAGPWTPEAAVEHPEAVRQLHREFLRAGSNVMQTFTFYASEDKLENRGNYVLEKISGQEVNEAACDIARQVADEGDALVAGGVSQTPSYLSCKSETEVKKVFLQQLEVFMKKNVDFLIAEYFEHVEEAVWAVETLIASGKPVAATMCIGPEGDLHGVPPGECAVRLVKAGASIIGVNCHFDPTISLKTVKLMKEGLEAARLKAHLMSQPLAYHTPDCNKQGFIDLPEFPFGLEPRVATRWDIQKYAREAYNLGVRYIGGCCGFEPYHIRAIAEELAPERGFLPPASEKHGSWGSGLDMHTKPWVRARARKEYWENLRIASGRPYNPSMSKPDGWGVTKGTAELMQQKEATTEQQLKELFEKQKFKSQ
Procedure details: Inhibition of human recombinant BHMT using N-methyl-[14C]-betaine/D,L-homocysteine as substrate at 20 uM after 30 mins by scintiillation counting analysis
Property: inhibition (%)

Examples from the recorded data:
> print(dat)
                                   molecule  reported
1        O=C(O)CCCCS[C@H]1CN[C@H](C(=O)O)C1         0
2  NC(CCSCCCCC(=O)O)C(=O)N1CCCCC1 (racemic)         9
3         NC(=O)C(N)CCSCCCCC(=O)O (racemic)        17

(P) NC(CCSCCCCC(=O)O)P(=O)(O)O (racemic)
(Q) NC(CCSCCCCC(=O)O)c1nc(=O)o[nH]1 (racemic)
(R) NC(CCSCCCCC(=O)O)c1nnn[nH]1 (racemic)
# input Put the molecules in ascending order of inhibition. // ordering of labels required in reply
# output R, Q, P
(R: 0%, Q: 15%, P: 58%)
